Parameter: pKd. Scope: all listed entries.
Biological target: T1, human CD3e/g (human, UniProt P07766 23-126; P09693 23-116)
T1 construct: Bought soluble protein; also called hCD3e/g; human CD3e/g (Acro CDD-C52W4)
T1 sequence (P07766 23-126, chain 1 of 2): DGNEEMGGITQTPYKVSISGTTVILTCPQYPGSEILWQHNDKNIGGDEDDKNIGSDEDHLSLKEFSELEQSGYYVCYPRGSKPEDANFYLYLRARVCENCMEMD
T1 sequence (P09693 23-116, chain 2 of 2): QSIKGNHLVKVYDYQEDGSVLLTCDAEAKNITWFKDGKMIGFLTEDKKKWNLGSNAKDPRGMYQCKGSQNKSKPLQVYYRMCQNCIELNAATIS
Experiment: SPR (Carterra LSA), mAb on chip
Interpret pKd as the negative base-10 log of the concentration measured in mol/L.

mAb 155 (antibody, V domains shown, VH and VL only) VH: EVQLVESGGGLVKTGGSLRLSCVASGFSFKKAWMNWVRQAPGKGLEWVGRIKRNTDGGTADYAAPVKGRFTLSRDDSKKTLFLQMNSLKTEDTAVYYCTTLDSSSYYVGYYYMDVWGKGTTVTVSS VL: DIQMTQSPSSVSASVGDRVIITCRASQDINNWLAWYQQKPGKAPKLLIYTASSLQSGVPSRFSGSGSGTDFTLTIGSLQPEDFATYYCQQAHSLPISFGQGTRLDIK | 8.15
mAb 96 (antibody, V domains shown, VH and VL only) VH: QAHLVESGGGVVQPGRSLRLSCSASGFTFSGYGMHWVRQAPGKGLEWVSLIYFDGRNKYYADSVKGRFTISRDNSKNTLYLQMNSLRAEDTAVYYCARGGGYNWFDPWGQGTLVTVSS VL: DIQMTQSPSSLSASVGDRVTITCRASQSINNYLSWYQQKPGKAPKLLIYLASNLQSGVPSRFSGNGSGTDFTLTISSLQPEDFATYYCQLSYRSPFTFGPGTKVDVK | 7.92

Now turn to the next binder.
Tell me its pKd given mAb 141 (antibody, V domains shown, VH and VL only) VH: QVQLVQSGAEVKKPGASVKVSCKASGYTFTSYYIHWVRQAPGQGLDWMGIINPSGGITGYAQKLQGRVTMTRDTSTTTVYMELSSLRSDDTAVYYCARGVRGNYYYYYMDVWGKGTTVTVSS VL: EIVLTQSPDFQSVTPKEKVTITCRASQSIGSKLHWYQQKPDQSPKLLIKYASQSFSGVPSRFSGSGSGTDFNLTINSLEAEDAATFYCHQSSGLPYTFGQGTKLEIK as the entry.
7.59
